Biological target: antigenic protein: class A β-lactamase fragment of Mycobacterium abscessus (Blamab gene) with C-terminal TEV … (Mycobacterium abscessus)
Test: cell-based or functional assay
PROPERTY_NAME: Vmax (µM/min), with antibody
Please give a number only; it is taken to be in µM/min.

Some binders with recorded Vmax (µM/min), with antibody:
β-lactamase inhibitor B6 antibody (VHH, sdAb from a synthetic naive yeast display library; expressed from pET26b in the E. coli periplasm and purified by chromatography; also called sdAb B6) VHH: QVQLQESGGGLVQAGGSLRLSCAASGTISAVSGMGWYRQAPGKEREFVASINRGSTTNYADSVKGRFTISRDNAKNTVYLQMNSLKPEDTAVYYCAALHGTGRVHVYWGQGTQVTVSS; 0.26
β-lactamase inhibitor B3 antibody (VHH, sdAb from a synthetic naive yeast display library; expressed from pET26b in the E. coli periplasm and purified by chromatography; also called sdAb B3) VHH: QVQLQESGGGLVQAGGSLRLSCAASGTIFYYPYMGWYRQAPGKEREFVAGIDYGSTTYYADSVKGRFTISRDNAKNTVYLQMNSLKPEDTAVYYCAVVYLVTRKGASQQDEIYSYWGQGTQVTVSS; 0.34
single domain antibody B1 (VHH, sdAb from a synthetic naive yeast display library; expressed from pET26b in the E. coli periplasm and purified by chromatography; also called sdAb B1) VHH: QVQLQESGGGLVQAGGSLRLSCAASGNIFTVSSMGWYRQAPGKEREFVAAISDGATTNYADSVKGRFTISRDNAKNTVYLQMNSLKPEDTAVYYCAAYASRVGLTVYWGQGTQVTVSS; 0.26
β-lactamase inhibitor B5 antibody (VHH, sdAb from a synthetic naive yeast display library; expressed from pET26b in the E. coli periplasm and purified by chromatography; also called sdAb B5) VHH: QVQLQESGGGLVQAGGSLRLSCAASGNISDLGTMGWYRQAPGKEREFVAGIGTGSNTYYADSVKGRFTISRDNAKNTVYLQMNSLKPEDTAVYYCAVIAGRSYWIYFYYWGQGTQVTVSS; 0.23
β-lactamase inhibitor B4 antibody (VHH, sdAb from a synthetic naive yeast display library; expressed from pET26b in the E. coli periplasm and purified by chromatography; also called sdAb B4) VHH: QVQLQESGGGLVQAGGSLRLSCAASGTIFAQDYMGWYRQAPGKEREFVASIAYGTITYYADSVKGRFTISRDNAKNTVYLQMNSLKPEDTAVYYCAVYPTPVTDYIYWGQGTQVTVSS; 0.28

Kindly review the next binder as well.
-- ask Fill blank: measured Vmax (µM/min), with antibody of the binder β-lactamase inhibitor B2 antibody (VHH, sdAb from a synthetic naive yeast display library; expressed from pET26b in the E. coli periplasm and purified by chromatography; also called sdAb B2) VHH: QVQLQESGGGLVQAGGSLRLSCAASGTIFVYPYMGWYRQAPGKEREFVAGIGQGATTYYADSVKGRFTISRDNAKNTVYLQMNSLKPEDTAVYYCAAYRYRDDVRRYGIDRYHTYWGQGTQVTVSS is ____.
-- reply 0.25
